Target: Replicase polyprotein 1ab (Severe acute respiratory syndrome coronavirus 2)
Experiment: Inhibition of SARS CoV-2 main protease at 50 uM using DABCYL-KTSAVLQSGFRKM-E(EDANS)-NH2 as substrate preincubated for 30 mins followed by substrate addition and measured after 20 mins relative to control
Conditions: time 50.0 min

# compound, subject_of_test, inhibition
records = [
    ("COc1cc([N+](=O)[O-])ccc1-c1ccc(/C=N/NC(=O)Cn2c3ccccc3c(=O)c3ccccc32)o1", "Replicase polyprotein 1ab (Severe acute respiratory syndrome coronavirus 2)", "26%"),
    ("NC(=S)N/N=C/c1ccc(-c2cccc(C(=O)O)c2Cl)o1", "Replicase polyprotein 1ab (Severe acute respiratory syndrome coronavirus 2)", "84.4%"),
    ("CC1=NN(c2ccc(C)c(Cl)c2)C(=O)/C1=C\\c1ccc(-c2ccc(C(=O)O)cc2)o1", "Replicase polyprotein 1ab (Severe acute respiratory syndrome coronavirus 2)", "< 20%"),
    ("O=C(N/N=C/c1ccc(-c2ccc([N+](=O)[O-])cc2)o1)c1cc2ccccc2cc1O", "Replicase polyprotein 1ab (Severe acute respiratory syndrome coronavirus 2)", "< 20%"),
    ("Cc1ccc(OCC(=O)N/N=C/c2ccc(-c3cc([N+](=O)[O-])ccc3Cl)o2)c(C)c1", "Replicase polyprotein 1ab (Severe acute respiratory syndrome coronavirus 2)", "< 20%"),
    ("Cc1c(NC(=S)N/N=C/c2ccc(-c3ccc(Br)cc3)o2)c(=O)n(-c2ccccc2)n1C", "Replicase polyprotein 1ab (Severe acute respiratory syndrome coronavirus 2)", "27.7%"),
    ("O=[N+]([O-])c1cccc(-c2ccc(/C=N/NC(=S)NC3CCS(=O)(=O)C3)o2)c1 (centres undefined)", "Replicase polyprotein 1ab (Severe acute respiratory syndrome coronavirus 2)", "30.2%"),
    ("CCOC(=O)c1ccc(-c2ccc(/C=N/NC(=O)Cn3c4ccccc4c(=O)c4ccccc43)o2)cc1", "Replicase polyprotein 1ab (Severe acute respiratory syndrome coronavirus 2)", "< 20%"),
    ("Cc1cc([N+](=O)[O-])c(-c2ccc(/C=N/NC(=O)c3nonc3N)o2)cc1Cl", "Replicase polyprotein 1ab (Severe acute respiratory syndrome coronavirus 2)", "70.9%"),
    ("Cc1c(NC(=S)NC(=O)c2cncc(Br)c2)c(=O)n(-c2ccccc2)n1C", "Replicase polyprotein 1ab (Severe acute respiratory syndrome coronavirus 2)", "< 20%"),
    ("COCc1cc(C)nc(OCC(=O)N/N=C/c2ccc(-c3ccc(C(=O)O)cc3)o2)c1C#N", "Replicase polyprotein 1ab (Severe acute respiratory syndrome coronavirus 2)", "36.2%"),
    ("O=C(NCCCn1ccnc1)/C(=C\\c1ccc(-c2cccc([N+](=O)[O-])c2)o1)NC(=O)c1ccccc1", "Replicase polyprotein 1ab (Severe acute respiratory syndrome coronavirus 2)", "28.8%"),
    ("N=C1S/C(=C/c2ccc(-c3cccc(C(=O)O)c3)o2)C(=O)N1c1nonc1N", "Replicase polyprotein 1ab (Severe acute respiratory syndrome coronavirus 2)", "30.3%"),
    ("Cc1c(NC(=S)NC(=O)c2ccc(Cl)cc2)c(=O)n(-c2ccccc2)n1C", "Replicase polyprotein 1ab (Severe acute respiratory syndrome coronavirus 2)", "< 20%"),
    ("Cc1c(N=C(S)Nc2ccccc2)c(=O)n(-c2ccccc2)n1C", "Replicase polyprotein 1ab (Severe acute respiratory syndrome coronavirus 2)", "< 20%"),
    ("NC(=S)N/N=C/c1ccc(-c2ccc(S(N)(=O)=O)cc2)o1", "Replicase polyprotein 1ab (Severe acute respiratory syndrome coronavirus 2)", "98.5%"),
    ("CCNC(S)=Nc1c(C)n(C)n(-c2ccccc2)c1=O", "Replicase polyprotein 1ab (Severe acute respiratory syndrome coronavirus 2)", "< 20%"),
    ("O=C(O)c1cc(-c2ccc(/C=N/Nc3nc(Nc4ccccc4)nc(Nc4ccccc4)n3)o2)ccc1O", "Replicase polyprotein 1ab (Severe acute respiratory syndrome coronavirus 2)", "34.6%"),
    ("O=C(O)c1cc(N/N=C/c2ccc(-c3ccc(Cl)c(C(=O)O)c3)o2)ccc1Cl", "Replicase polyprotein 1ab (Severe acute respiratory syndrome coronavirus 2)", "28.2%"),
]

###

Molecular target: UniProt P0DTD1
Test: Inhibition of SARS CoV-2 main protease using DABCYL-KTSAVLQSGFRKM-E(EDANS)-NH2 as substrate preincubated for 5 mins followed by substrate addition
pIC50: −log10 of the molar value.

# smiles_structure, subject_of_test, pIC50
data = [
    ("NC(=S)N/N=C/c1ccc(-c2ccc(C(=O)O)c(O)c2)o1", "UniProt P0DTD1", 4.37),
]

###

Target: Replicase polyprotein 1ab (Severe acute respiratory syndrome coronavirus 2, UniProt P0DTD1)
Test: Inhibition of SARS CoV-2 main protease using DABCYL-KTSAVLQSGFRKM-E(EDANS)-NH2 as substrate preincubated for 30 mins followed by substrate addition and measured after 20 mins
pIC50: −log10 of the molar value.

# smiles_structure, pIC50
rows = [
    ("NC(=S)N/N=C/c1ccc(-c2cccc(C(=O)O)c2)o1", 4.96),
    ("NC(=S)N/N=C/c1ccc(-c2ccc(S(N)(=O)=O)cc2)o1", 5.27),
    ("NC(=S)N/N=C/c1ccc(-c2cccc(C(=O)O)c2Cl)o1", 4.39),
    ("Cc1cc(-c2ccc(/C=N/NC(=O)Cn3nnnc3N)o2)c([N+](=O)[O-])cc1C", 4.76),
    ("NC(=S)N/N=C/c1ccc(-c2ccncc2)o1", 5.15),
    ("NC(=O)c1ccc(-c2ccc(/C=N/NC(N)=S)o2)cc1", 5.40),
    ("COc1ccc(-c2ccc(/C=N/NC(N)=S)o2)cc1OC", 5.24),
    ("Cc1c(NC(=S)N/N=C/c2ccc(-c3ccc([N+](=O)[O-])cc3)o2)c(=O)n(-c2ccccc2)n1C", 4.97),
    ("Cc1cc(C(=O)O)ccc1-c1ccc(/C=N/NC(N)=S)o1", 5.33),
    ("NC(=S)N/N=C/c1ccc(-c2cccc([N+](=O)[O-])c2)o1", 5.09),
    ("NC(=S)N/N=C/c1ccc(-c2ccc3cccnc3c2)o1", 4.98),
]

###

Molecular target: Replicase polyprotein 1ab (Severe acute respiratory syndrome coronavirus 2) (UniProt P0DTD1)
Experiment: Inhibition of SARS CoV-2 main protease at 50 uM using DABCYL-KTSAVLQSGFRKM-E(EDANS)-NH2 as substrate preincubated for 30 mins followed by substrate addition and measured after 20 mins relative to control
Settings: time 50.0 min

# compound, relation_sign, inhibition, %
data = [
    ("N#Cc1cc(-c2ccc(/C=N/NC(N)=S)o2)ccc1O", "=", 107),
    ("Cc1cc(-c2ccc(/C=N/NC(=O)C(NC(=O)Cc3ccco3)C(C)C)o2)cc([N+](=O)[O-])c1C (stereo not given)", "=", 62.8),
    ("Cc1cc(-c2ccc(/C=N/NC(=O)Nc3ccccc3)o2)c(C)c([N+](=O)[O-])c1", "<", 20),
    ("CC1=CC2=NC(=O)/C(=C\\c3ccc(-c4cccc(C(=O)O)c4)o3)C(=N)N2O1", "<", 20),
    ("CCOC(=O)N/N=C/c1ccc(-c2cccc(C(=O)O)c2)o1", "=", 29.4),
]

###

Target: Replicase polyprotein 1ab (Severe acute respiratory syndrome coronavirus 2) (UniProt P0DTD1)
Test: Inhibition of SARS CoV-2 main protease at 50 uM using DABCYL-KTSAVLQSGFRKM-E(EDANS)-NH2 as substrate preincubated for 30 mins followed by substrate addition and measured after 20 mins relative to control
Conditions: time 50.0 min

# smiles_structure, measure_unit, relation_sign, inhibition
data = [
    ("O=C(Cn1c2ccccc2c(=O)c2ccccc21)N/N=C/c1ccc(-c2cccc([N+](=O)[O-])c2)o1", "%", "=", 26.8),
    ("Cc1c(NC(=S)N(C)CCC#N)c(=O)n(-c2ccccc2)n1C", "%", "<", 20),
    ("O=C(Cn1c2ccccc2c(=O)c2ccccc21)N/N=C/c1ccc(-c2ccccc2)o1", "%", "=", 21.3),
    ("O=C(O)c1cccc(-c2ccc(/C=N/NC(=S)Nc3cccc(C(F)(F)F)c3)o2)c1", "%", "=", 43),
    ("O=C(N/N=C/c1ccc([N+](=O)[O-])o1)c1c[nH]c2ccccc12", "%", "<", 20),
]

This collection of values is drawn from ChEMBL document CHEMBL5137045.
